# System: Angiotensin II receptor (AT-1) type-1 (Rattus norvegicus, UniProt P29089+P25095)
# Sequence (P29089 whole entry): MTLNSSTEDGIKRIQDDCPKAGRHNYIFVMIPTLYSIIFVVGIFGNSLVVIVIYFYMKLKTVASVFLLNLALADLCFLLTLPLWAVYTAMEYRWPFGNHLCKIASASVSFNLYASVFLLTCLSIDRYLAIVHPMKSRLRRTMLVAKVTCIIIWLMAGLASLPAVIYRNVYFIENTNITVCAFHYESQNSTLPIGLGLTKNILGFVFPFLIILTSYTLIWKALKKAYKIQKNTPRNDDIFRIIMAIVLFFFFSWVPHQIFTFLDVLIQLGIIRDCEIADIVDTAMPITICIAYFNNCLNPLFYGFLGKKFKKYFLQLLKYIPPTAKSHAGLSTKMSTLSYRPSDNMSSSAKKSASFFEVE
# Sequence (P25095 whole entry): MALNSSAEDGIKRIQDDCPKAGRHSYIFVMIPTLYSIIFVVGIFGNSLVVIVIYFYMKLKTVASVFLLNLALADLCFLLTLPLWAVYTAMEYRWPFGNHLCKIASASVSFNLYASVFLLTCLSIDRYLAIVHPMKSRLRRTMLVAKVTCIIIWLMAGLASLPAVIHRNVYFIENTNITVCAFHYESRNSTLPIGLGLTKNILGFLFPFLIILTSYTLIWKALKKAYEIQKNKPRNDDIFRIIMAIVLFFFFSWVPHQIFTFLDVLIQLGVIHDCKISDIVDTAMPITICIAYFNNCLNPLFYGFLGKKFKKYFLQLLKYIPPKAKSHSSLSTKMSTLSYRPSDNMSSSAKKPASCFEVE
# Assay Remarks: Inhibitory concentration against [125 I]Ang II binding to rat pituitary membranes Angiotensin II receptor type 1 without 0.2% bovine serum albumin
Bridge positions count the residues as written; N and C are the ends. Square brackets hold non-standard residues; d marks the D form. Peptide text beside a SMILES is read from it. Pen = CC(C)(S)[C@H](N)C(=O)O; hCys = N[C@@H](CCS)C(=O)O
Value Kind: IC50 (nM)

CC[C@H](C)[C@@H](C(=O)N[C@@H](Cc1c[nH]cn1)C(=O)N1CCC[C@H]1C(=O)N[C@@H](Cc1ccccc1)C(=O)O)N1CCC(CNC(=O)[C@H](CCCN=C(N)N)NC(=O)[C@@H](N)CC(=O)O)=C[C@@H](Cc2ccc(O)cc2)C1=O
2.8
NC(N)=NCCC[C@H](NC(=O)[C@@H](N)CC(=O)O)C(=O)N[C@H]1CCSSCC[C@@H](C(=O)N[C@@H](Cc2c[nH]cn2)C(=O)N2CCC[C@H]2C(=O)N[C@@H](Cc2ccccc2)C(=O)O)NC(=O)[C@H](Cc2ccc(O)cc2)NC1=O (H-DR[hCys]Y[hCys]HPF-OH; disulfide 3-5)
1.7
CC1(C)SSC(C)(C)[C@@H](C(=O)N[C@@H](Cc2c[nH]cn2)C(=O)N2CCC[C@H]2C(=O)N[C@@H](Cc2ccccc2)C(=O)O)NC(=O)[C@H](Cc2ccc(O)cc2)NC(=O)[C@H]1NC(=O)[C@H](CCCN=C(N)N)NC(=O)[C@@H](N)CC(=O)O (H-DR[Pen]Y[Pen]HPF-OH; disulfide 3-5)
0.9

(P) CC[C@H](C)[C@@H](C(=O)N[C@@H](Cc1c[nH]cn1)C(=O)N1CCC[C@H]1C(=O)N[C@@H](Cc1ccccc1)C(=O)O)N1CCC(CNC(=O)[C@H](CCCN=C(N)N)NC(=O)[C@@H](N)CC(=O)O)=C[C@H](Cc2ccc(O)cc2)C1=O
(Q) NC(N)=NCCC[C@H](NC(=O)[C@@H](N)CC(=O)O)C(=O)N[C@H]1CSSC[C@@H](C(=O)N[C@@H](Cc2c[nH]cn2)C(=O)N2CCC[C@H]2C(=O)N[C@@H](Cc2ccccc2)C(=O)O)NC(=O)[C@H](Cc2ccc(O)cc2)NC1=O (H-DRCYCHPF-OH; disulfide 3-5)
Qu. Field: lower IC50 | Options: P / Q Bench note: the answer is the label of the chosen record.
Ans. P
(P: 2 nM, Q: 2.9 nM)

Data origin: ChEMBL document CHEMBL1129972
